Hello, the source for this data is ChEMBL document CHEMBL4513216, in case you need it.

ASSAY PROCEDURE: Toxicity liver stage against HepG2, at 10uM
Type: cell-based
Design: test concentration 10 uM, cell line HepG2-A16-CD81EGFP
TEST SETTINGS: human, HepG2-A16-CD81EGFP cells; read-out: INHIBITION
Consider the following molecules; for each one, report its cytotoxicity at 10 µM.
One number for each entry, in %.

These recorded examples may help you get a feel for the data.
# MOLECULE, UNIT TAG, TEST VALUE
data = [
    ("CN(C)CC1(O)CCN(C(=O)c2cnc(-c3cccnc3)nc2)C1 (stereo unspecified)", "%", 5.75),
    ("CCOc1cncc(N(C)CC(=O)NC)n1", "%", 2.16),
    ("Cc1nc2c(c(N3CCC(O)(Cn4ccnc4)CC3)n1)CCNCC2", "%", 1.37),
    ("CN(C)c1cc(CC(NC(=O)C2CC2)c2ccccc2)nc(C2CC2)n1 (stereo unspecified)", "%", 5.73),
    ("N#Cc1cc(NS(=O)(=O)CC2CCCCO2)ccc1F (stereo unspecified)", "%", -14.1),
]

Now for another entry.
Qu. Give the measured cytotoxicity at 10 µM of Cc1cc(N2CCC(C(=O)O)(n3ccc(C(C)C)n3)CC2)nc(N)n1 .
Ans. 0.445

----------
ASSAY PROCEDURE: Toxicity liver stage against HepG2, at 10uM
Assay type: cell-based
Set-up: test concentration 10 uM, cell line HepG2-A16-CD81EGFP
TEST SETTINGS: human, HepG2-A16-CD81EGFP cells; read-out: INHIBITION
PROPERTY MEASURED: cytotoxicity at 10 µM (%)
Numbers only, in %.

# COMPOUND, PROPERTY MEASURED, TEST VALUE
records = [
    ("O=C(NC[C@H]1OC[C@@H](NCc2ccc(F)cc2)[C@@H]1O)N1CCOCC1", "cytotoxicity at 10 µM", 1.17),
    ("CCOc1ccccc1C(N)CC(C)C (centres undefined)", "cytotoxicity at 10 µM", -0.857),
    ("Cn1cc(C(=O)N2CCN(c3ccccc3)CC2)ccc1=O", "cytotoxicity at 10 µM", -0.408),
]

Lab note: each compound below needs its cytotoxicity at 10 µM filled in.
1. Clc1ccc(COCC2CCN(Cc3ccccn3)CC2)cc1
2. Cc1ccccc1OCC1CCCN(C(=O)CN(C)C2CCNCC2)C1 (centres undefined)
3. CCCc1noc(C(C)N(CC)Cc2ccco2)n1 (centres undefined)
4. N#CCCN(CC(F)(F)F)C(=O)c1cc(-n2cccn2)ccn1
5. N#Cc1nccnc1N1CCN(CCOCc2ccccc2)CC1

Ans.
1: 4.94; 2: -5.54; 3: 7.3; 4: 8.93; 5: -18.4

----------
ASSAY PROCEDURE: Toxicity liver stage against HepG2, at 10uM
Assay type: cell-based
Parameters: test concentration 10 uM, cell line HepG2-A16-CD81EGFP
TEST SETTINGS: human, HepG2-A16-CD81EGFP cells; read-out: INHIBITION
Consider the following molecules; for each one, report its cytotoxicity at 10 µM.
Entry format: amount then unit.

# MOLECULE, TEST VALUE
rows = [
    ("Cc1ccc(NC(=O)NC(C)c2nc[nH]n2)s1 (stereo unspecified)", "-2.18%"),
    ("Cc1cc(C)n(CC(C)NC(=O)NCc2c(C)cc(C)[nH]c2=O)n1 (stereo unspecified)", "-6.58%"),
    ("Cc1c(C(C)NC2CCCC2)cnn1-c1ccc(F)cc1F (stereo unspecified)", "4.91%"),
]

Lab note: each molecule below needs its cytotoxicity at 10 µM filled in.
1. CCC(CNC(C)=O)(OC)c1ccccc1 (stereo unspecified)
2. CCc1sc(C(=O)Nc2cnn(CC(=O)NC3CC3)c2)cc1C
3. CCn1cc2c(n1)C(COCC1CC1)CN(C(=O)c1cnoc1C)C2 (stereo unspecified)

Ans.
1.97%
-2.17%
17.5%
